Give TGI for every item shown.
test system: SF-295 CNS; assay: NCI tumour cell line growth inhibition, 48 h

Sample answers from the record:
O=C(Nc1ccc(-c2nc3cc4ccccc4cc3[nH]2)cc1)c1cccc(Br)c1
48.1 µM
CCOC(=O)c1cc2cc(N(C(C)=O)C(C)=O)ccc2s1
> 100 µM
C=C[C@@H]1OC(=O)O[C@H]1CO
> 100 µM
COc1cccc(N2C(=O)c3c(c4[nH]c5ccccc5c4c4ccc(C(C)(C)C)cc34)C2=O)c1
> 100 µM
CN(C)CCCNc1c(O)c2c(c(O)c1Cl)C(=O)C=CC2=O
3.27 µM

Look up TGI for the entries below, preserving their order.
1. COC(=O)c1ccccc1C1CN=NC12Cc1ccc3ccccc3c1C2=O (configuration not stated)
2. CCCCCCCCCOC(=O)c1cnc(Cl)cn1
3. O=C(Nc1ccc(Cl)c(C(F)(F)F)c1)C(=O)C(C(=O)/C=C/c1ccccc1)C1OC(=O)c2ccccc21 (configuration not stated)

# output
> 100 µM
34.6 µM
> 100 µM

Respectfully, I request TGI for each entry included below.
1. CC(=O)N=C(N=Nc1c(O)[nH]c2ccc(C)cc12)NC(C)=O
2. CC(Cn1c2c3ccccc3ccc2c2oc(=O)c3ccccc3c21)N(C)C (configuration not stated)
3. CC1=C2C(O)C(C(C)C(=O)NCC(C)C)CCC2(C)C=CC1=O (configuration not stated)

# output
> 100 µM
> 100 µM
> 100 µM

Could I get TGI for every one of these entries?
1. C/C(CN1C(=O)c2ccccc2C1=O)=N\NS(=O)(=O)c1cccc([N+](=O)[O-])c1
2. C=C1C(=O)O[C@H]2[C@H]1CC/C(COC(=O)C(=O)c1c[nH]c3ccccc13)=C\CC[C@@]1(C)O[C@@H]21
3. Oc1ccc(C(c2ccccc2)(c2ccccc2)c2ccccc2)cc1
4. CN/N=C(/Cc1occc(=O)c1O)C(=O)Nc1ccc(C)c(C)c1
5. CCCCCCCCC[C@@H]1C[C@@H]2CCC3C(C(=O)OC)=C(C)NC(=N1)N32 (some centres not stated)

# output
> 100 µM
24.9 µM
> 100 µM
> 100 µM
23.6 µM

Below is a list of compounds. For each, state its recorded TGI.
1. CN(C1=NCCO1)c1cccc2ccccc12
2. CC1=C(C)C(=O)c2c(c(C(=O)c3ccccc3)c3nc4ccccc4n3c2C)C1=O
3. Cc1ccc(NC(c2ccccc2)c2ccc3cccnc3c2O)cc1 (configuration not stated)
4. CCOC(=O)CN1CCNCCN(CC(=O)OCC)CCNCC1
5. O=C1OC(c2ccco2)=N/C1=C\c1ccc(Cl)c(Cl)c1
6. COc1nc2c(OC)cccc2c(OC)c1C=O

# output
["> 10 µM", "> 100 µM", "16.1 µM", "> 100 µM", "> 100 µM", "> 100 µM"]

Batch request: TGI per item, same order as input.
1. Cn1c(=O)oc2cc(C(=O)CSC(=S)N3CCCCCC3)ccc21
2. CC(=O)/C(C=Nc1c(C)n(C)n(-c2ccccc2)c1=O)=C(/C)O
3. CN(C)CCNC(=O)c1ccc(Nc2nc3ccccc3c3occc23)cc1
4. Nc1ccccc1C#CC#Cc1ccccc1N
5. CCOC(=O)/C(C#N)=C/c1ccc2c(-c3c(OCC)ccc4cc(/C=C(\C#N)C(=O)OCC)ccc34)c(OCC)ccc2c1
6. Cc1c(N2C(=O)/C(=C/C=C/c3ccccc3)N=C2c2ccccc2)c(=O)n(-c2ccccc2)n1C
7. CCNc1nnc(CSc2nc(-c3ccccc3)c(-c3ccccc3)[nH]2)s1
8. NCc1ccc(-c2ccc(-c3ccc(-c4ccc(CN)s4)s3)s2)s1

# output
1: > 100 µM; 2: > 100 µM; 3: 4.18 µM; 4: > 100 µM; 5: > 100 µM; 6: 40 µM; 7: 34.1 µM; 8: > 100 µM

Could you tell me TGI for each of these compounds? They are listed below.
1. CC(C(=O)N1C(=O)N(C(=O)C(C)C(O)c2ccccc2)C(c2ccccc2)C1c1ccccc1)C(O)c1ccccc1 (configuration not stated)
2. Cc1ccc(S(=O)(=O)N/N=C(\CCN2CCCC2)CC(c2ccccc2)c2c(O)c3ccccc3oc2=O)cc1 (configuration not stated)
3. Cc1ccc(-c2c(C#N)c(-c3ccc(Cl)cc3)c(C#N)c(=O)n2NS(=O)(=O)c2ccccc2)cc1
4. CC(=O)N(C)OC(=O)CC(=O)c1ccccc1

# output
1: 10.8 µM; 2: > 100 µM; 3: > 100 µM; 4: > 100 µM

Could you tell me TGI for each of these compounds? They are listed below.
1. CC(C)C[C@H](NC(=O)[C@H](Cc1ccccc1)n1ccc(N2CCCCC2)cc1=O)B(O)O
2. O=C(O)c1ccc(S(=O)(=O)c2ccccc2)c([N+](=O)[O-])c1
3. O=C(Nc1ccc(Cl)c([N+](=O)[O-])c1)Nc1nc2ccccc2s1
4. CC/C(=N\NC(=O)c1cccnc1)c1ccc2c(c1)OCCO2
5. COc1ccc(OC)c(C2CCc3nc4nc(N)nc(N)c4cc3C2)c1 (configuration not stated)

# output
1. 4.51 µM
2. > 100 µM
3. 5.41 µM
4. > 100 µM
5. 26.5 µM

Provide TGI for all items below, preserving their order.
1. S=c1ssc2c3ssc(=S)c3n(Cc3ccccc3)c12
2. C=CC1(C)CCC(C(C)C(=O)C(C=C(C)C)OC(C)=O)C12C(=O)Oc1ccccc1C2=O (configuration not stated)
3. CC(C)(C)[OH+][O-].[O-]c1ccc(Cl)cc1C=Nc1ccc(Cl)cc1[O-].[O]=[V]

# output
1. > 100 µM
2. > 100 µM
3. 33.5 µM

====

tested on: NCI-H226 lung; experiment: NCI tumour cell line growth inhibition, 48 h
measured-property: TGI

O=C(OCCN=C1c2ccccc2CCc2ccccc21)c1cc([N+](=O)[O-])cc([N+](=O)[O-])c1
> 31.6 µM

Parameters: items (list). Returns: TGI for each item.
1. CCN1CC2=C(N=c3s/c(=C\c4ccc(Cl)cc4)c(=O)n3C2c2ccc(Cl)cc2)/C(=C/c2ccc(Cl)cc2)C1 (stereo unspecified)
2. O=S(=O)([O-])[O-].[OH3+].[OH3+].[OH3+].[Ru+2].c1ccccc1
3. CC(C)(C)NNC(=O)/C(=C/c1ccc(Oc2ccc(Cl)c(Cl)c2)cc1)NC(=O)c1ccccc1
4. O=C1C2C(C(=O)N1O)N(Cc1ccccc1)C(=O)N2Cc1ccccc1 (stereo unspecified)
5. CC(C)(C)[Si](C)(C)OCC1CCC(n2cnc3c(NC(=O)c4ccccc4)ncnc32)O1 (stereo unspecified)

# output
["> 100 µM", "> 100 µM", "> 100 µM", "> 100 µM", "34.6 µM"]

====

Field: TGI. Provide a value for each of the compounds that follow.
test system: COLO 205 colon; assay: NCI tumour cell line growth inhibition, 48 h

S=c1[nH]nc(COc2ccc3c(c2)CCCC3)n1/N=C/c1ccc(Cl)cc1
31.2 µM
NC(=S)/N=C/c1c(O)c2ccccc2oc1=O
> 100 µM
CCCC1NC(=O)C(CC(C)C)NC(=O)c2cccc(n2)C(=O)NC(CC(C)C)C(=O)NC(CCC)C(=O)NC(C(=O)OC)CCCCNC1=O (stereo not given)
> 100 µM
O=C1NC(=O)C(C(=O)C(=O)Nc2ccc(Br)cc2)C(=O)N1
> 100 µM
CNc1ncnc(Sc2nc(N)nc3nc[nH]c23)c1[N+](=O)[O-]
5.53 µM
Oc1c(CN2CCC(N3CCOCC3)CC2)cc(Cc2cc(CN3CCC(N4CCOCC4)CC3)c(O)c3ncccc23)c2cccnc12
10.6 µM
CSC1=N/C(=C\c2ccc(C)cc2)C(=O)N1CN1CCOCC1
> 100 µM
OC1(c2ccccc2)CC2CCC(C1)N2CCc1ccccc1 (stereo not given)
35.7 µM

For each of the compounds below, note its TGI.
1. O=P(c1ccccc1)(c1ccccc1)C1CC=C(c2ccccc2)C2(CCCC2)C1 (stereo not given)
2. Cc1[nH]c2ncn3nc(C(Cl)(Cl)Cl)nc3c2c1Cc1ccccc1

# output
1: 56.7 µM; 2: > 100 µM

====

tested on: BT-549 breast; assay: NCI tumour cell line growth inhibition, 48 h
measured-property: TGI

CN(C)/[N+]([O-])=N/Oc1cc(Nc2cccc(C(=O)O)c2)c([N+](=O)[O-])cc1[N+](=O)[O-]
> 100 µM

Your task in this section: give TGI for each listed record.
1. CC(=O)/C(C=Nc1c(C)n(C)n(-c2ccccc2)c1=O)=C(/C)O
2. O=C(c1ccccc1)c1ccc(C(c2c(O)c3ccccc3oc2=O)c2c(O)c3ccccc3oc2=O)cc1
3. CCC1=C(C)/C(=C/c2[nH]c(C)c(C(=O)CCCCC(=O)OC)c2C)N=C1c1ccc[nH]1
4. CCN1C(=O)C/C(=C\C(C)=O)Nc2ccccc21
5. Cc1ccc(/C=C2\CN(C)CC3=C2OC(N)=C(C#N)C3c2ccc(C)cc2)cc1 (centres undefined)

# output
["> 100 µM", "48.9 µM", "> 41.3 µM", "> 100 µM", "40.1 µM"]

The following compounds each have a reported value; give each one's TGI.
1. CC/C=C\C[C@H](O)C/C=C1/C(=O)C=C[C@@H]1C/C=C\CCCC(=O)NC(C)C
2. CCOC(=O)/C(C#N)=C/c1ccc2c(-c3c(OCC)ccc4cc(/C=C(\C#N)C(=O)OCC)ccc34)c(OCC)ccc2c1
3. COc1c(CC=C(C)C)c(O)c(C(CC(C)C)c2c(O)c(C(C)=O)c(O)c3c2OC(C(C)(C)O)C3)c(O)c1C(C)=O (centres undefined)

# output
1. 6.13 µM
2. > 100 µM
3. 10.6 µM

Numbers sourced from PubChem BioAssay (NCI).
